Taken from ChEMBL document CHEMBL2029199.

Quick record: IC50, Apoptosis regulator Bcl-2 (Homo sapiens, UniProt P10415).

{"columns": ["MOL_SMILES", "RESULT_UNITS", "IC50"],
 "data": [
  ["CCCN(CCC)c1nccc(-c2ccc(C(=O)NS(=O)(=O)c3ccc4ccccc4c3)cc2C(=O)N2CCc3ccccc3C2)n1", "µM", 0.15],
  ["CCCCN(CCCC)c1nccc(-c2ccc(C(=O)NS(=O)(=O)c3ccc4ccccc4c3)cc2C(=O)N2Cc3ccccc3C[C@H]2CN)n1", "µM", 0.43],
  ["CCCCc1c(-c2ccc(C(=O)NS(=O)(=O)CC[Si](C)(C)C)cc2C(=O)N2CCc3ccccc3C2)c(CO)nn1-c1ccccc1", "µM", 0.19],
  ["CCCCN(CCCC)c1nccc(-c2ccc(C(=O)NS(=O)(=O)c3ccc4cccc(Cl)c4c3)cc2C(=O)N2Cc3ccccc3C[C@H]2CO)n1", "µM", 0.16],
  ["CCCCN(CCCC)c1nccc(-c2ccc(C(=O)NS(=O)(=O)c3ccc4c(c3)CCN4Cc3ccc(Cl)c(Cl)c3)cc2C(=O)N2CCc3ccccc3C2)n1", "µM", 0.12],
  ["CCCCc1c(-c2ccc(C(=O)NS(=O)(=O)c3ccc4ccccc4c3)cc2C(=O)N2Cc3ccccc3C[C@H]2CO)c(CO)nn1-c1ccccc1", "µM", 0.011],
  ["CCCCN(CCCC)c1ncc(C)c(-c2ccc(C(=O)NS(=O)(=O)c3ccc4ccccc4c3)cc2C(=O)N2CCc3ccccc3C2)n1", "µM", 0.11],
  ["CCCCN(CCCC)c1nccc(-c2ccc(C(=O)NS(=O)(=O)c3ccc4cccc(Cl)c4c3)cc2C(=O)N2CCc3ccccc3C2)n1", "µM", 0.12],
  ["CCCCc1c(-c2ccc(C(=O)NS(=O)(=O)c3ccc4ccccc4c3)cc2C(=O)N2CCc3ccccc3C2)c(C(=O)OCC)nn1-c1ccccc1", "µM", 0.66],
  ["CCCCc1c(-c2ccc(C(=O)NS(=O)(=O)c3ccc4ccccc4c3)cc2C(=O)N2CCc3ccccc3C2)c(C(=O)OCC)nn1-c1ccc(OC)cc1", "µM", 1.79],
  ["CCCCc1c(-c2ccc(C(=O)NS(=O)(=O)c3ccc4ccccc4c3)cc2C(=O)N2Cc3ccccc3C[C@H]2CN)c(CO)nn1-c1ccccc1", "µM", 0.024],
  ["CCCCCS(=O)(=O)NC(=O)c1ccc(-c2c(CO)nn(-c3ccc(Oc4cccc(Cl)c4)cc3)c2CCCC)c(C(=O)N2CCc3ccccc3C2)c1", "µM", 0.065],
  ["CCOC(=O)c1nn(-c2ccccc2)c(C)c1-c1ccc(C(=O)NS(=O)(=O)c2ccc3ccccc3c2)cc1C(=O)N1CCc2ccccc2C1", "µM", 4.19],
  ["CCCCc1c(-c2ccc(C(=O)NS(=O)(=O)CC)cc2C(=O)N2CCc3ccccc3C2)c(CO)nn1-c1ccc(Oc2cccc(Cl)c2)cc1", "µM", 0.19],
  ["CCCCc1c(-c2ccc(C(=O)NS(=O)(=O)c3ccc4ccccc4c3)cc2C(=O)N2CCc3ccccc3C2)c(CO)nn1-c1ccc(-c2ccccc2)cc1", "µM", 0.007],
  ["CCCN(CCC)c1ncc(Cl)c(-c2ccc(C(=O)NS(=O)(=O)c3ccc4cccc(Cl)c4c3)cc2C(=O)N2Cc3ccccc3C[C@H]2CO)n1", "µM", 0.009]
]}
